Target: human hematopoietic prostaglandin D2 synthase (Homo sapiens)
Sequence (O60760 whole entry): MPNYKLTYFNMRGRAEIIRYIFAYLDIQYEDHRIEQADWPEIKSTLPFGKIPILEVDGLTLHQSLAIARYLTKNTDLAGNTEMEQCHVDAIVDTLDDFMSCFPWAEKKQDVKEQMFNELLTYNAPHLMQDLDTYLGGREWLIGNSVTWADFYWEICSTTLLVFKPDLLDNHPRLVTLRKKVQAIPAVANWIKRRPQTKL
Experiment: Inhibitory activity against spleen-type (hematopoietic) prostaglandin D2 synthase, [14C]PGH2 to PGD2, TLC
Assay type: biochemical
Conditions: Drug Concentration 10 μM
assay.readout: Inhibitory Ratio of Prostaglandin D2 (PGD2) Synthase (%)
# value in %; strip the unit string

query: # input molecule: COCc1nc2ccccc2c(=O)n1N=Cc1c(C)nn(-c2ccccc2)c1O [Compound 29] ; wanted: its Inhibitory Ratio of Prostaglandin D2 (PGD2) Synthase (%)
result: 20

query: # input molecule: COc1ccccc1-c1nc2ccccc2c(=O)n1N=Cc1c(C)nn(-c2ccccc2)c1O [Compound 32] ; wanted: its Inhibitory Ratio of Prostaglandin D2 (PGD2) Synthase (%)
result: 12

query: # input molecule: Cc1nn(-c2ccccc2)c(O)c1C=NN1C(=O)c2ccccc2NC1CO (centres unmarked) [Compound 39] ; wanted: its Inhibitory Ratio of Prostaglandin D2 (PGD2) Synthase (%)
result: 77

query: # input molecule: COc1ccc(-c2nc3ccccc3c(=O)n2N=Cc2c(C)nn(-c3ccccc3)c2O)cc1 [Compound 30] ; wanted: its Inhibitory Ratio of Prostaglandin D2 (PGD2) Synthase (%)
result: 51

Others:
query: # input molecule: COc1cccc(-c2nc3ccccc3c(=O)n2N=Cc2c(C)nn(-c3ccccc3)c2O)c1 [Compound 31] ; wanted: its Inhibitory Ratio of Prostaglandin D2 (PGD2) Synthase (%)
result: 23

====

Some compounds, each annotated with its measured Inhibitory Ratio of Prostaglandin D2 (PGD2) Production (%).
Test system: RBL-2H3, a rat basophilic leukemia cell to express hematopoietic prostaglandin D synthase
Experiment: Prostaglandin D2 production inhibition test using cells (A23187-induced, EIA)
Type: cell-based
Details: Drug Concentration 10 μM; RBL-2H3 cells, A23187 2.5 μM
# value in %; strip the unit string

query: # input compound: `Cc1nc2ccccc2c(=O)n1N=Cc1c(C23CC4CC(CC(C4)C2)C3)nn(-c2ccccc2)c1O` ; wanted: its Inhibitory Ratio of Prostaglandin D2 (PGD2) Production (%)
result: 100

query: # input compound: Cc1nn(-c2ccccc2)c(O)c1C=NN1C(=O)c2ccccc2NC1CO (centres unmarked) [Compound 39] ; wanted: its Inhibitory Ratio of Prostaglandin D2 (PGD2) Production (%)
result: 70

query: # input compound: `Cc1nc2ccccc2c(=O)n1N=Cc1c(-c2ccc(C(C)(C)C)cc2)nn(-c2ccccc2)c1O` ; wanted: its Inhibitory Ratio of Prostaglandin D2 (PGD2) Production (%)
result: 100

query: # input compound: Cc1nn(-c2ccccc2)c(O)c1C=NN1C(=O)c2ccccc2NC1CO (centres unmarked) [Compound 41] ; wanted: its Inhibitory Ratio of Prostaglandin D2 (PGD2) Production (%)
result: 80

Others:
query: # input compound: `COc1ccc(-c2nc3ccccc3c(=O)n2N=Cc2c(C)nn(-c3ccccc3)c2O)cc1` ; wanted: its Inhibitory Ratio of Prostaglandin D2 (PGD2) Production (%)
result: 28

====

Target: human hematopoietic prostaglandin D2 synthase (Homo sapiens)
Assay: Inhibitory activity against spleen-type (hematopoietic) prostaglandin D2 synthase, [14C]PGH2 to PGD2, TLC
Type: biochemical
Conditions: Drug Concentration 30 μM
assay.readout: Inhibitory Ratio of Prostaglandin D2 (PGD2) Synthase (%)

Example results:
query: # input compound: `COc1cccc(-c2nc3ccccc3c(=O)n2N=Cc2c(C)nn(-c3ccccc3)c2O)c1` ; wanted: its Inhibitory Ratio of Prostaglandin D2 (PGD2) Synthase (%)
result: 26%

query: # input compound: `COCc1nc2ccccc2c(=O)n1N=Cc1c(C)nn(-c2ccccc2)c1O` ; wanted: its Inhibitory Ratio of Prostaglandin D2 (PGD2) Synthase (%)
result: 40%

query: # input compound: `COc1ccc(-c2nc3ccccc3c(=O)n2N=Cc2c(C)nn(-c3ccccc3)c2O)cc1` ; wanted: its Inhibitory Ratio of Prostaglandin D2 (PGD2) Synthase (%)
result: 71%

query: # input compound: `COc1ccccc1-c1nc2ccccc2c(=O)n1N=Cc1c(C)nn(-c2ccccc2)c1O` ; wanted: its Inhibitory Ratio of Prostaglandin D2 (PGD2) Synthase (%)
result: 15%

Lab note: next compound to report on.
query: # input compound: Cc1nn(-c2ccccc2)c(O)c1C=NN1C(=O)c2ccccc2NC1CO (centres unmarked) ; wanted: its Inhibitory Ratio of Prostaglandin D2 (PGD2) Synthase (%)
result: 46%

====

System: RBL-2H3, a rat basophilic leukemia cell to express hematopoietic prostaglandin D synthase
Experiment: Prostaglandin D2 production inhibition test using cells (A23187-induced, EIA)
Format: cell-based
Settings: Rattus norvegicus, RBL-2H3, Drug Concentration 10 μM; RBL-2H3 cells, A23187 2.5 μM; read-out: Inhibitory Ratio of Prostaglandin D2 (PGD2) Production (%)
Kindly return label 1 if reported inhibition at 10 µM is no lower than 50%; return label 0 if it is lower.

The examples below pair each entry with its known result.
query: Entry Cc1nn(-c2ccccc2)c(O)c1C=NN1C(=O)c2ccccc2NC1CO (centres unmarked) [Compound 40] : is its inhibition at 10 µM no less than 50%?
result: label 1

query: Entry CCOc1c(/C=N/n2c(C)nc3ccccc3c2=O)c(C)nn1-c1ccccc1 [Compound 3] : is its inhibition at 10 µM no less than 50%?
result: label 0

query: Entry Cc1nn(-c2ccccc2)c(O)c1/C=N/n1c(C)nc2ccc(Br)cc2c1=O [Compound 37] : is its inhibition at 10 µM no less than 50%?
result: label 0

Now let's try a different one.
query: Entry Cc1nn(-c2ccccc2)c(O)c1/C=N/n1c(-c2ccccc2)nc2ccccc2c1=O [Compound 24] : is its inhibition at 10 µM no less than 50%?
result: label 1

====

Biological target: human hematopoietic prostaglandin D2 synthase (Homo sapiens)
Assay: Inhibitory activity against spleen-type (hematopoietic) prostaglandin D2 synthase, [14C]PGH2 to PGD2, TLC
Format: biochemical
Conditions: Drug Concentration 30 μM; read-out: Inhibitory Ratio of Prostaglandin D2 (PGD2) Synthase (%)
Some compounds, each annotated with its measured inhibition at 30 µM.
# value in %; strip the unit string

Example results:
query: # input compound: `Cc1nc2ccccc2c(=O)n1/N=C/c1c(C(F)(F)F)nn(-c2ccccc2)c1O` ; wanted: its inhibition at 30 µM
result: 105

query: # input compound: `Cc1ccc(-n2nc(C)c(C=Nn3c(C)nc4ccccc4c3=O)c2O)cc1` ; wanted: its inhibition at 30 µM
result: 37

query: # input compound: `Cc1nn(-c2ccc([N+](=O)[O-])cc2)c(O)c1C=Nn1c(C)nc2ccccc2c1=O` ; wanted: its inhibition at 30 µM
result: 83

query: # input compound: `Cc1nn(-c2ccccc2)c(O)c1/C=N/n1c(CO)nc2ccccc2c1=O` ; wanted: its inhibition at 30 µM
result: 71

query: # input compound: `Cc1nn(-c2ccccc2)c(O)c1/C=N/n1c(C)nc2cc(Cl)ccc2c1=O` ; wanted: its inhibition at 30 µM
result: 60

query: # input compound: `Cc1nn(-c2ccccc2)c(O)c1/C=N/n1c(C(C)C)nc2ccccc2c1=O` ; wanted: its inhibition at 30 µM
result: 44

query: # input compound: `Cc1nn(C)c(O)c1/C=N/n1c(C)nc2ccccc2c1=O` ; wanted: its inhibition at 30 µM
result: 27

query: # input compound: `Cc1nn(-c2ccccc2)c(O)c1/C=N/n1c(C)nc2ccc(Br)cc2c1=O` ; wanted: its inhibition at 30 µM
result: 56

query: # input compound: `Cc1nn(-c2ccccc2)c(O)c1/C=N/n1c(C)nc2ccc(Cl)cc2c1=O` ; wanted: its inhibition at 30 µM
result: 68

query: # input compound: `Cc1nn(-c2ccccc2)c(O)c1/C=N/n1c(C)nc2c(C)cccc2c1=O` ; wanted: its inhibition at 30 µM
result: 84

Others:
query: # input compound: `COc1ccc(-n2nc(C)c(C=Nn3c(C)nc4ccccc4c3=O)c2O)cc1` ; wanted: its inhibition at 30 µM
result: 50

query: # input compound: `Cc1nn(-c2ccccc2Cl)c(O)c1C=Nn1c(C)nc2ccccc2c1=O` ; wanted: its inhibition at 30 µM
result: 53

query: # input compound: `COc1cc2nc(C)n(/N=C/c3c(C)nn(-c4ccccc4)c3O)c(=O)c2cc1OC` ; wanted: its inhibition at 30 µM
result: 51

query: # input compound: `CCc1nc2ccccc2c(=O)n1/N=C/c1c(C)nn(-c2ccccc2)c1O` ; wanted: its inhibition at 30 µM
result: 51

query: # input compound: `O=c1c2ccccc2nc(CO)n1/N=C/c1c(C(F)(F)F)nn(-c2ccccc2)c1O` ; wanted: its inhibition at 30 µM
result: 30

query: # input compound: `Cc1nn(-c2cccc(Cl)c2)c(O)c1C=Nn1c(C)nc2ccccc2c1=O` ; wanted: its inhibition at 30 µM
result: 81

query: # input compound: `Cc1nn(-c2ccccc2)c(O)c1/C=N/n1c(C)nc2ccccc2c1=O` ; wanted: its inhibition at 30 µM
result: 76

query: # input compound: `Cc1nn(-c2ccccc2)c(O)c1/C=N/n1c(C)nc2cccc(C)c2c1=O` ; wanted: its inhibition at 30 µM
result: 61
